- test details: self-splicing fitness, log relative to wild type (ln ratio); higher = more splicing; Tetrahymena group I intron in knt gene, E. coli kanamycin selection, DiMSum; sequences stand for … in CUCUCU…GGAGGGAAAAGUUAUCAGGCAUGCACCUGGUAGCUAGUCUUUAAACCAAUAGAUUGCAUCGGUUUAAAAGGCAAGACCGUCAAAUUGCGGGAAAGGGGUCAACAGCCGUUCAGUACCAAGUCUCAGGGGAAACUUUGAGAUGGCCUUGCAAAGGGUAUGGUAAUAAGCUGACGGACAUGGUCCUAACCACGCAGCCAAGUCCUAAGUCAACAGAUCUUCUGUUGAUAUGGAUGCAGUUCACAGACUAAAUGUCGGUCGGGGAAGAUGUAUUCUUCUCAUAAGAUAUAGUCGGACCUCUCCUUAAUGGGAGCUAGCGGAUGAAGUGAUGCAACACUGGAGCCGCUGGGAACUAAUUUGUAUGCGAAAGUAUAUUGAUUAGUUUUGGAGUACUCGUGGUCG;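 further: selection with 25 µg/mL kanamycin versus none on LB agar overnight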
- details: 37 °C
Assignment: determine reported self-splicing fitness (ln) for the given sequences.
Give your answer as a number; write no unit.

`GGAGAGCAAUAUUACGUAAU` yielded self-splicing fitness (ln) of -0.814

`ACAGAGCAAUAUUACGCAUG` yielded self-splicing fitness (ln) of -1.95

`AGCGAGCAAUAUUACGCUGC` yielded self-splicing fitness (ln) of -2.23

`AUCCAGCAAUAUUACGUCUC` yielded self-splicing fitness (ln) of -0.869

`AGAUAGCAAUAUUACGGCAU` yielded self-splicing fitness (ln) of 0.242

`CUCGAGCAAUAUUACGGUCU` yielded self-splicing fitness (ln) of -2.11

`ACUGAGCAAUAUUACGCCGA` yielded self-splicing fitness (ln) of -1.33

`GUUUAGCAAUAUUACGAAUU` yielded self-splicing fitness (ln) of -0.545

* * *

- test details: self-splicing fitness, log relative to wild type (ln ratio); higher = more splicing; Tetrahymena group I intron in knt gene, E. coli kanamycin selection, DiMSum; sequences stand for … in CUCUCU…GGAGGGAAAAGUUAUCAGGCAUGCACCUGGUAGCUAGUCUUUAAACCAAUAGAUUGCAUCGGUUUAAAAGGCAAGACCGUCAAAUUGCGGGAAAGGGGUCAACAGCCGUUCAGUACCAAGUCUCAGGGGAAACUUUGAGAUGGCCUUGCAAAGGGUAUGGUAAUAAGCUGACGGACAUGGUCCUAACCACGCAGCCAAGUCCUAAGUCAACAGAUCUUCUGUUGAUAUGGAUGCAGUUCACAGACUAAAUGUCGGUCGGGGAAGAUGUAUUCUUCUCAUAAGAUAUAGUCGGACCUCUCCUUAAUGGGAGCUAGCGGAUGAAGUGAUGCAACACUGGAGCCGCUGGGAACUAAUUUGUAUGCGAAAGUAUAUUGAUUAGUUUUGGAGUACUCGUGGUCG
- details: 30 °C
Assignment: determine reported self-splicing fitness (ln) for the given sequences.
Give your answer as a number; write no unit.

`AAAAAGCAAUAUUACGGGAA` yielded self-splicing fitness (ln) of -2.09

`GUAUAGCAAUAUUACGUUCA` yielded self-splicing fitness (ln) of -1.06

`GCUUAGCAAUAUUACGUUUC` yielded self-splicing fitness (ln) of -1.2

`AAAUAGCAAUAUUACGACCC` yielded self-splicing fitness (ln) of -0.239

`GGCGAGCAAUAUUACGAGGG` yielded self-splicing fitness (ln) of -0.768

`GCCGAGCAAUAUUACGUGUU` yielded self-splicing fitness (ln) of -2.22

`CAAAAGCAAUAUUACGCCCC` yielded self-splicing fitness (ln) of -3.27

`GUCGAGCAAUAUUACGACUU` yielded self-splicing fitness (ln) of -1.88

`GCAGAGCAAUAUUACGGGGC` yielded self-splicing fitness (ln) of -3.05

`AGGAAGCAAUAUUACGGCGC` yielded self-splicing fitness (ln) of -0.231

`UCUCAGCAAUAUUACGUACU` yielded self-splicing fitness (ln) of -3.39

`GAGCAGCAAUAUUACGGGUC` yielded self-splicing fitness (ln) of -3.07

`GAACAGCAAUAUUACGUUCA` yielded self-splicing fitness (ln) of -2.31

`UCAGAGCAAUAUUACGGAGG` yielded self-splicing fitness (ln) of -3.4

`AGUAAGCAAUAUUACGGGCA` yielded self-splicing fitness (ln) of -0.89

`AGUAAGCAAUAUUACGAGCA` yielded self-splicing fitness (ln) of -0.223
